- target desc: human MOPr (Homo sapiens);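 as to MOPr (cAMP) Emax: Emax relative to DAMGO as 100%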
- Sequence (P35372 whole entry): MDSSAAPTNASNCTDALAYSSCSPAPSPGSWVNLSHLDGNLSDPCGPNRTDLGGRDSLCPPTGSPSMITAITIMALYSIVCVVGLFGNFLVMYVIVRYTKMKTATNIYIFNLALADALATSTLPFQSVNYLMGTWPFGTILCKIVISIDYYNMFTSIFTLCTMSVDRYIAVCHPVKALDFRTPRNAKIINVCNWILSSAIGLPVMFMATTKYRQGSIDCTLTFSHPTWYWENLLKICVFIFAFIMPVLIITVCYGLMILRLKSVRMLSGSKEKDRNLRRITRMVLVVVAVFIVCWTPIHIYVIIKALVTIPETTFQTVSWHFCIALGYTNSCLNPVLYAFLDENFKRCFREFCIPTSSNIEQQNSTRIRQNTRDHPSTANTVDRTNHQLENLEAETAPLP
- run description: cell-based
- Assay type: cell-based
- Parameters: expressed in transfected cells; HEK293-Glo20F cells (cAMP)
- condition: read-out: MOPr (cAMP) Emax
Starred links: 1 amine or outer side, 2 acyl side, 3 side chain; linkers in the order of their positions; H or OH if unused. Non-standard residues stand in square brackets, D forms with d. Residues, ends and D or L forms follow the SMILES beside them. Nva(5-(4-Bn-piperidin-1-yl)) = N[C@@H](CCCN1CCC(Cc2ccccc2)CC1)C(=O)O; X1 = O=C1[C@@H](N[*:1])Cc2ccccc2CN1CCC(=O)[*:2]; Dmt = Cc1cc(O)cc(C)c1C[C@H](N)C(=O)O; d(hArg) = N=C(N)NCCCC[C@@H](N)C(=O)O; dOrn = NCCC[C@@H](N)C(=O)O
Classify as follows. Reported Emax greater than or equal to 90%: TRUE. Reported Emax below: FALSE.

- Cc1cc(O)cc(C)c1C[C@H](N)C(=O)N[C@H](CCCNC(=N)N)C(=O)N[C@H]1Cc2ccccc2CN(CCC(=O)N[C@@H](CCCN2CCc3ccccc3C2)C(=O)N[C@@H](Cc2ccccc2)C(N)=O)C1=O: TRUE
- Cc1cc(O)cc(C)c1C[C@H](N)C(=O)N[C@H](CCCNC(=N)N)C(=O)N[C@@H](Cc1ccccc1)C(=O)N(C)CC(=O)N[C@@H](CCCN1CCC(Cc2ccccc2)CC1)C(=O)N[C@H](C(N)=O)C(C)C [DP0025, H-Dmt-D-Arg-Phe-N(Me)Gly-Bpa-Val-NH2] (HELM PEPTIDE1{[Cc1cc(O)cc(C)c1C[C@H](N)C(=O)[*:2]].[dR].F.[Sar].[O=C([C@H](CCCN1CCC(Cc2ccccc2)CC1)N[*:1])[*:2]].V.[am]}$$$$V2.0): TRUE
- Cc1cc(O)cc(C)c1C[C@H](N)C(=O)N[C@H](CCCNC(=N)N)C(=O)N[C@@H](Cc1ccccc1)C(N)=O [KGFF07, H-Dmt-D-Arg-Phe-NH2] (HELM PEPTIDE1{[Cc1cc(O)cc(C)c1C[C@H](N)C(=O)[*:2]].[dR].F.[am]}$$$$V2.0): TRUE
- Cc1cc(O)cc(C)c1C[C@H](N)C(=O)N[C@H](CCCNC(=N)N)C(=O)N[C@H]1Cc2c(ccc3ccccc23)CN(CC(=O)N[C@@H](CCCN2CCC(Cc3ccccc3)CC2)C(=O)N[C@H](C(N)=O)C(C)C)C1=O: TRUE
- Cc1cc(O)cc(C)c1C[C@H](N)C(=O)N[C@H](CCCN)C(=O)N[C@H]1Cc2ccccc2CN(CCC(=O)N[C@@H](CCCN2CCC(Cc3ccccc3)CC2)C(=O)N[C@@H](Cc2ccccc2)C(N)=O)C1=O [DP0028, H-Dmt-D-Orn-Aba-β-Ala-Bpa-Phe-NH2] (H-[Dmt][dOrn][X1][Nva(5-(4-Bn-piperidin-1-yl))]F-NH2): FALSE
- Cc1cc(O)cc(C)c1C[C@H](N)C(=O)N[C@H](CCCNC(=N)N)C(=O)N[C@H]1Cc2ccccc2CN(CCC(=O)N[C@@H](CCCN2CCC(Cc3ccccc3)CC2)C(=O)N[C@H](Cc2ccccc2)C(N)=O)C1=O: TRUE
- Cc1cc(O)cc(C)c1C[C@H](N)C(=O)N[C@H](CCCN1CCC(Cc2ccccc2)CC1)C(=O)N[C@H]1Cc2ccccc2CN(CCC(=O)N[C@@H](CCCN2CCC(Cc3ccccc3)CC2)C(=O)N[C@@H](Cc2ccccc2)C(N)=O)C1=O: FALSE
- Cc1cc(O)cc(C)c1C[C@H](N)C(=O)N[C@H](CCCNC(=N)N)C(=O)N[C@H]1Cc2ccccc2CN(CCC(=O)N[C@H](CCCN2CCC(Cc3ccccc3)CC2)C(=O)N[C@@H](Cc2ccccc2)C(N)=O)C1=O: TRUE
- Cc1cc(O)cc(C)c1C[C@H](N)C(=O)N[C@H](CCCCNC(=N)N)C(=O)N[C@H]1Cc2ccccc2CN(CCC(=O)N[C@@H](CCCN2CCC(Cc3ccccc3)CC2)C(=O)N[C@@H](Cc2ccccc2)C(N)=O)C1=O [DP0033, H-Dmt-D-hArg-Aba-β-Ala-Bpa-Phe-NH2] (H-[Dmt][d(hArg)][X1][Nva(5-(4-Bn-piperidin-1-yl))]F-NH2): FALSE
